Reference for the values: the supplement of paper PMC4466140

Catalogue of SPOT peptide array binding signal intensity readings, one per entry.
Test Target: AgBzz1-D2
Method Summary: SPOT peptide array binding signal intensity (averaged, normalized) (arbitrary units (background-subtracted, floor 0; scale differs between SH3 domains)); higher = stronger binding of the SH3 domain to the peptide
Parameter: SPOT peptide array binding signal intensity

Binder: RFKRHRLEFPFNESE
Comparative Sign: =
Result: 71

Binder: EVTPKVPERPSRRKT
Comparative Sign: =
Result: 136

Binder: VPPPMQPPPIESSNL
Comparative Sign: ≤
Result: 0

Binder: TKRKRPARLIFYDSK
Comparative Sign: =
Result: 20
